The following compounds are listed with their measured Ki values.
target: UniProt P21554; assay: Binding to the CB1 receptor ([3H]-SR141716A displacement); conditions: CHO-K1/cannabinoid CB1 protein 2 μg/well; [3H]-SR141716A 0.5 nM; Ki from IC50 by Cheng-Prusoff; average of double determination; read-out: hCB1R; binding Ki
Sequence (P21554 whole entry): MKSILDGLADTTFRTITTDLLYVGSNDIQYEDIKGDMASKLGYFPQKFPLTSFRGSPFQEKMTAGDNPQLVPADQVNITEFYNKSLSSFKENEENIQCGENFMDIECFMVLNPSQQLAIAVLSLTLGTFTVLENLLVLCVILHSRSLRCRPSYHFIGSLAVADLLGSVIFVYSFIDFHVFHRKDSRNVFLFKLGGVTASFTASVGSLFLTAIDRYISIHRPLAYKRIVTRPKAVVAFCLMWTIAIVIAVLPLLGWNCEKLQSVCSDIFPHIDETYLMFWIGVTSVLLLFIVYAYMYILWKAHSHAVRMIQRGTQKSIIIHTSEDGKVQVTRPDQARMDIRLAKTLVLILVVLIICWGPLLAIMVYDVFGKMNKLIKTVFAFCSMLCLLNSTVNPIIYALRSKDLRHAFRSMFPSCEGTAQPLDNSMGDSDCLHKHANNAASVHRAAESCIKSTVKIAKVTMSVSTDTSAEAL
Structures can show the parent of a compound that is named as a salt.
A number alone suffices; assume nM.

Use these answered entries as a reference point.
compound	resultUnits	Ki
CC1(C)C(=O)N(c2ccc(F)c(C(F)(F)F)c2)C(=O)N1Cc1ccccc1Nc1ccc(Cl)cc1	nM	6
COC(=O)c1ccc(Nc2cc(F)ccc2CN2C(=O)N(c3ccc(C#N)c(-c4ccc(Cl)cc4)c3)C(=O)C2(C)C)cc1	nM	6
CC1(C)C(=O)N(c2ccc(F)c(C(F)(F)F)c2)C(=O)N1Cc1ccccc1Nc1ccc(C(=N)N)cc1 [Example 144, hydrochloride]	nM	19

Shift focus to the following entry.
response.value for CC1(C)C(=O)N(c2ccc(C#N)c(C(F)(F)F)c2)C(=O)N1Cc1cccc(Nc2ccccc2)c1 (field: Ki) = 107
